B1: Osa-1-4 twister ribozyme (parent)
chain: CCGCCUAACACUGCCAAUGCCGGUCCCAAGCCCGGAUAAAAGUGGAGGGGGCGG

Variants of: B1
Test: self-cleavage, relative activity (ratio to wild type); higher = more cleavage; co-transcriptional
Would you mind labelling by self-cleavage? At or over 0.07 is true, under is false.

G35C G53A
true
A38G A7G
true
G23A G50A
true
A8G G23U
false
C32U U24A
false
C27U G22C
false
A36C G48C
false
C14U G48U
false
A16U C52A
true
A28C C32A
true
A36G C31U
true
A46C
true
A29C C26U
false
C20G G23A
false
C52U G50U
true
A16G A29C
true
C11G G54A
true
G23U G48A
false
A29G G44U
true
G42U U12A
false
A28C C15A
true
G22C G34C
false
A36G C14U
true
C20A G34C
true
C20A G19U
true
G19A U18A
true
G19U G35A
true
C9U G22A
true
G19U G23U
false
C33A G50U
true
A39U G23A
true
A38G C20G
true
G48A U43C
false
A10G A8G
true
A38C G42A
true
A38C C52U
true
A10U G48A
false
A28G C31U
true
C11A G42U
true
A36C A7G
true
C20U G35U
true
A7G G34C
true
C26A C27A
false
A7G C20G
true
C15U U24C
false
A36G U18A
true
A28U C26G
true
A7U U18C
true
C25G G23U
false
C33A G51C
false
C15A G44U
true
G22A U43A
true
A28G G22A
true
C26U G44A
true
G54A U43A
true
C20U C32A
true
A38U G13C
false
A16G G19C
true
C27G G42A
false
A46G G54U
true
A16C C27G
false
A38U A41G
true
A39C C52U
true
A8G C15A
true
G47C G48A
false
G47C U37A
true
G22C U37A
true
C15U G53C
false
A36G G22U
true
C26U G35A
true
C20G G30A
false
A46G C20A
true
A7C C11U
false
A28G U43G
true
A8G C11G
true
A7C G48A
false
A17U G49C
true
A36C C21A
true
A46G G35C
false
G23C G44A
false
A16C C20G
true
A39G C11G
true
A41C C25G
true
